The measured values listed here are drawn from patent US10597388B2.

Please go through the items and note down their Galium plant response rating.
- System: galium (catchweed bedstraw, Galium aparine)
- experiment: Test C greenhouse herbicide test, pre- and postemergence
- Type: in vivo
- condition_description: postemergence, 62 g ai/ha; scale 0 to 100, 0 no effect, 100 complete control
- Excerpt: […]
Give bare numbers.

The following compounds each have a reported value; give each one's Galium plant response rating.
1. CCC(=O)Oc1c(C)nn(C)c(=O)c1-c1c(C)sc2c(C)cc(C)cc12 [Compound 28]
2. COc1nn(C)c(=O)c(-c2c(C)ccc3ccccc23)c1OC(=O)OC(C)C [Compound 36]
3. COC(=O)Oc1c(C)nn(C)c(=O)c1-c1c(C)sc2c(C)cc(C)cc12 [Compound 81]
4. Cc1ccc2sc(C)c(-c3c(O)c(C)nn(C)c3=O)c2c1 [Compound 1]
5. Cc1ccc2ccccc2c1-c1c(O)cnn(C)c1=O [Compound 56]
6. Cc1cc(C)c2ccccc2c1-c1c(O)cnn(C)c1=O [Compound 51]
7. Cc1ccc2ccc(C)c(-c3c(O)c(C)nn(C)c3=O)c2c1 [Compound 60]

Response:
[100, 95, 95, 95, 85, 90, 100]

Prompt: // Input: Cc1ccc2ccccc2c1-c1c(O)c(C)nn(C)c1=O [Compound 59] . Output its Galium plant response rating only.
Response: 98
